Source: ChEMBL document CHEMBL1140733

# inhibition at 1 µM listing for each entry below
# Tested on: HCT-15
# EXPERIMENT DESCRIPTION: Cytotoxicity against multidrug-resistant human HCT15 cells at 1 uM by thymidine incorporation assay
# Format: functional
Square brackets hold non-standard residues; d marks the D form. Peptide text beside a SMILES is read from it. * marks the point of attachment. Bn = c1ccc(C*)cc1
Form entry: enter the amount, then its unit.

Examples with answers:
MOLECULE: CC(C)[C@@H]1NC(=O)[C@H](Cc2ccccc2)NC(=O)[C@@H](COCc2ccccc2)NC(=O)[C@H](C(C)C)NC(=O)[C@H](C(C)C)NC1=O (cyclo(FVVV[dS](Bn)))
STUDY TARGET: HCT-15
inhibition at 1 µM: 30%
--
MOLECULE: CC(C)C[C@@H]1NC(=O)[C@H](CC(C)C)NC(=O)[C@H](Cc2ccccc2)N(C)C(=O)[C@H](CC(C)C)NC(=O)[C@H](C(C)C)NC1=O (HELM PEPTIDE1{[meF].L.L.V.L}$PEPTIDE1,PEPTIDE1,1:R1-5:R2$$$V2.0)
STUDY TARGET: HCT-15
inhibition at 1 µM: 18%

Param readout= inhibition at 1 µM; system= HCT-15; entry= CC(C)C[C@@H]1NC(=O)[C@H](Cc2ccccc2)NC(=O)[C@H](CC(C)C)N(C)C(=O)[C@H](C(C)C)NC(=O)[C@H](CC(C)C)NC1=O (HELM PEPTIDE1{F.L.L.V.[meL]}$PEPTIDE1,PEPTIDE1,1:R1-5:R2$$$V2.0) ; returns value. 3%

====

# EXPERIMENT DESCRIPTION: Cytotoxicity against human WS1 cells by thymidine incorporation assay
# Format: cell-based
Peptide text beside a SMILES is read from it.
REPORTED PROPERTY: pIC50
In textbook form, pIC50 equals minus log to base ten of the concentration in mol/L.

Please review the following examples before continuing.
COMPOUND: CC(C)C[C@@H]1NC(=O)[C@H](C(C)C)NC(=O)[C@H](CC(C)C)NC(=O)[C@H](CC(C)C)N(C)C(=O)[C@H](Cc2ccccc2)NC1=O (HELM PEPTIDE1{F.[meL].L.V.L}$PEPTIDE1,PEPTIDE1,1:R1-5:R2$$$V2.0)
MEASURED: 3.70
//
COMPOUND: CC(C)C[C@@H]1NC(=O)[C@H](CC(C)C)NC(=O)[C@@H](Cc2ccc(O)cc2)NC(=O)[C@H](CC(C)C)NC(=O)[C@H](C(C)C)NC1=O (HELM PEPTIDE1{L.L.V.L.[dY]}$PEPTIDE1,PEPTIDE1,1:R1-5:R2$$$V2.0)
MEASURED: 3.70
//
COMPOUND: CC(C)C[C@@H]1NC(=O)[C@H](Cc2ccccc2)NC(=O)[C@H](CC(C)C)NC(=O)[C@@H](C(C)C)NC(=O)[C@H](CC(C)C)NC1=O (HELM PEPTIDE1{F.L.L.[dV].L}$PEPTIDE1,PEPTIDE1,1:R1-5:R2$$$V2.0)
MEASURED: 4.70
//
COMPOUND: CC(C)C[C@@H]1NC(=O)[C@H](C(C)C)NC(=O)[C@H](CC(C)C)N(C)C(=O)[C@@H](CC(C)C)NC(=O)[C@@H](Cc2ccccc2)NC1=O (HELM PEPTIDE1{[dL].[meL].V.L.[dF]}$PEPTIDE1,PEPTIDE1,1:R1-5:R2$$$V2.0)
MEASURED: 3.87

Would you kindly share the measured pIC50 for Nc1ccn([C@@H]2O[C@H](CO)[C@@H](O)C2(F)F)c(=O)n1 ? 3.70

Fill in: pIC50 of CC(C)C[C@@H]1NC(=O)[C@H](Cc2ccccc2)NC(=O)[C@H](CC(C)C)NC(=O)[C@H](C(C)C)NC(=O)[C@H](CC(C)C)NC1=O (HELM PEPTIDE1{F.L.L.V.L}$PEPTIDE1,PEPTIDE1,1:R1-5:R2$$$V2.0) is ___ 3.70

Could you share which pIC50 value was measured for CC(C)C[C@@H]1NC(=O)[C@H](C(C)C)NC(=O)[C@H](CC(C)C)NC(=O)[C@@H](CC(C)C)N(C)C(=O)[C@H](Cc2ccccc2)NC1=O (HELM PEPTIDE1{[CC(C)C[C@H](C(=O)[*:2])N(C)[*:1]].L.V.L.F}$PEPTIDE1,PEPTIDE1,1:R1-5:R2$$$V2.0) ? 3.70

Reported pIC50 for CC(C)C[C@@H]1NC(=O)[C@H](Cc2ccccc2)NC(=O)[C@@H](Cc2ccccc2)N(C)C(=O)[C@H](C(C)C)NC(=O)[C@H](CC(C)C)NC1=O : what is it? 3.70

Please give the measured pIC50 for this compound: CC(C)C[C@@H]1NC(=O)[C@H](Cc2ccccc2)NC(=O)[C@H](CC(C)C)NC(=O)[C@@H](C(C)C)N(C)C(=O)[C@H](CC2CCCCC2)NC1=O (HELM PEPTIDE1{[Cha].[CC(C)[C@H](C(=O)[*:2])N(C)[*:1]].L.F.L}$PEPTIDE1,PEPTIDE1,1:R1-5:R2$$$V2.0) 5.40
